target: T1, gastrin-releasing peptide receptor (GRPR) (human, UniProt P30550 1-384); assay: displacement of ^125I-[Tyr^4]BBN from PC-3 cells
T1 construct: whole, on cells; also called GRP receptor
T1 sequence (P30550 whole entry): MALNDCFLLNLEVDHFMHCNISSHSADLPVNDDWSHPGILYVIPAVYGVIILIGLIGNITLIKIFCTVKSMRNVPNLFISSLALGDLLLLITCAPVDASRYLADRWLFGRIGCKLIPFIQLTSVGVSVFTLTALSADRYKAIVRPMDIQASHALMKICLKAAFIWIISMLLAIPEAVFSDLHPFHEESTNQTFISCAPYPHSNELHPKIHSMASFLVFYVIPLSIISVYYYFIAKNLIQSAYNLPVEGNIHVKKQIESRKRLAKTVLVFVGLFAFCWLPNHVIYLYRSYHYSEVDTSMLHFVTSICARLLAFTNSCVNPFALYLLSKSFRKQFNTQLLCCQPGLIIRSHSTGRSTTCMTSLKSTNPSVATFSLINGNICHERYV
readout.name: pIC50
Answers are plain numbers, as −log10 of the molar value.

Worked examples follow.
{"binder": "RGD-BBN, cyclo(Arg-Gly-Asp-D-Tyr-Lys)-Glu-(Aca-Gln-Trp-Ala-Val-Gly-His-Leu-Met-NH2) (free amino group on Glu; Glu side-chain carboxylate joined to Aca; Aca between Glu and Gln; C-terminal amide (Met-NH2); cyclic (cyclo); D-Tyr at position 4; Lys side chain ε-amine joined to the α-carboxylate of Glu, also called Glu-RGD-BBN; RGD-bombesin) peptide 1: RGDYK peptide 2: EQWAVGHLM", "pIC50": 7.17}
{"binder": "NOTA-RGD-BBN (VII) (NOTA (from p-SCN-Bn-NOTA, SCN-amine reaction) on the amine of RGD-BBN; Aca between Glu and Gln; C-terminal amide (Met-NH2); cyclic (cyclo); D-Tyr at position 4; Lys side chain joined to the Glu …, also called NOTA-RGD-bombesin; ^64Cu-NOTA-RGD-BBN) peptide 1: RGDYK peptide 2: EQWAVGHLM", "pIC50": 7.25}

Next binder, pIC50 to be filled in.
Short answer for PEG3-Glu-RGD-BBN (not fully specified; PEG3 (11-amino-3,6,9-trioxaundecanoic acid) on the Glu amino group; Glu γ-carboxylate joined to Aca; Aca between Glu and Gln; C-terminal amide (Met-NH2); cyclic (cyclo); D-Tyr at position 4; Lys side chain ε-amine joined to the α-carboxylate of Glu, also called PEG3-RGD-BBN) peptide 1: RGDYK peptide 2: EQWAVGHLM : pIC50 was 7.07

Data credit: patent US20100015058A1
